Molecular target: Xanthine oxidase (XO) (Homo sapiens, UniProt P47989)
Sequence (P47989 whole entry, species assumed): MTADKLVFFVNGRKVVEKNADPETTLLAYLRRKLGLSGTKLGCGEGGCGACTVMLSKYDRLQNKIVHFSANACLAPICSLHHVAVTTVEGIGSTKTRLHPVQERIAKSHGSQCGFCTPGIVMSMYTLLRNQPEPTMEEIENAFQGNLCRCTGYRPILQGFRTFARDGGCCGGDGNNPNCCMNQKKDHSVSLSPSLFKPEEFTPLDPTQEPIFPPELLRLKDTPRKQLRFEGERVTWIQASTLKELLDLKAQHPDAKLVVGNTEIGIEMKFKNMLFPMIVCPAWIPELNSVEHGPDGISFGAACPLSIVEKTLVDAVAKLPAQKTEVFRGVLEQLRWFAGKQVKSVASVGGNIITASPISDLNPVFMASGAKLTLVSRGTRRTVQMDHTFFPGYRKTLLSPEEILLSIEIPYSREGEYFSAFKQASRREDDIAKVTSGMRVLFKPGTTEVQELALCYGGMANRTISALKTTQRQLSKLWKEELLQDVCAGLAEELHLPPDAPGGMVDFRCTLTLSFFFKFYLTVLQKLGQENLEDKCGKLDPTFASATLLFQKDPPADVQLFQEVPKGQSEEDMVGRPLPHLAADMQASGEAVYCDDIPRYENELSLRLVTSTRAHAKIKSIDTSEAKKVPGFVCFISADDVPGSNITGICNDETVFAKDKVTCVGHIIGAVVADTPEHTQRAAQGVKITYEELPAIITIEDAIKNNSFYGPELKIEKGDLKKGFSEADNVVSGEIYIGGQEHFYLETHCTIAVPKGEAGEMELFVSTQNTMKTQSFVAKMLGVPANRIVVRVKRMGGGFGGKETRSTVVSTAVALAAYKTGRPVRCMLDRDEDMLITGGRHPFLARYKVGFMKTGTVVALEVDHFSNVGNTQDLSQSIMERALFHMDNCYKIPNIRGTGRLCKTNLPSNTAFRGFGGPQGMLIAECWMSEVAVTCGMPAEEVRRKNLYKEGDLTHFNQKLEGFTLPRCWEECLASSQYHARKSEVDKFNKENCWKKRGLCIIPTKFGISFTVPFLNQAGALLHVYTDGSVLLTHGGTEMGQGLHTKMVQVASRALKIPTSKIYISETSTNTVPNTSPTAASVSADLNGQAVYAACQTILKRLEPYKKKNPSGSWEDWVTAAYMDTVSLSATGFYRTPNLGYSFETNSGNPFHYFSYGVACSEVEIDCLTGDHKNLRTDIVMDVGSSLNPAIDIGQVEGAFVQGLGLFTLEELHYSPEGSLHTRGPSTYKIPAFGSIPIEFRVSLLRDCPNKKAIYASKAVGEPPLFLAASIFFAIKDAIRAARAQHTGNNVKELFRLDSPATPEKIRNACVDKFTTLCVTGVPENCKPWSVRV
Assay: In vitro XO inhibitory potency (enzyme catalysis reaction, OD 295 nm)
Type: biochemical
Conditions: S1 Table, single determination 3 of 3; unit inferred; read-out: IC50 (third replicate column)
pIC50: −log10 of the molar value.

# entry.smiles, test.target, pIC50
records = [
    ("Cc1ccc(S(=O)(=O)NC(=O)N2CCSC2=S)cc1", "Xanthine oxidase (XO) (Homo sapiens, UniProt P47989)", 5.03),
    ("S=C1SCCN1c1ccccc1", "Xanthine oxidase (XO) (Homo sapiens, UniProt P47989)", 4.27),
    ("O=C(NCc1ccccc1)N1CCSC1=S", "Xanthine oxidase (XO) (Homo sapiens, UniProt P47989)", 4.97),
    ("CCNC(=O)N1CCSC1=S", "Xanthine oxidase (XO) (Homo sapiens, UniProt P47989)", 4.60),
    ("O=C(NS(=O)(=O)c1ccccc1)N1CCSC1=S", "Xanthine oxidase (XO) (Homo sapiens, UniProt P47989)", 5.20),
]
